TARGET_DESC: HNF4alpha8 (COS-7 nuclear extract) (Homo sapiens, UniProt P41235-5 1-452)
Sequence: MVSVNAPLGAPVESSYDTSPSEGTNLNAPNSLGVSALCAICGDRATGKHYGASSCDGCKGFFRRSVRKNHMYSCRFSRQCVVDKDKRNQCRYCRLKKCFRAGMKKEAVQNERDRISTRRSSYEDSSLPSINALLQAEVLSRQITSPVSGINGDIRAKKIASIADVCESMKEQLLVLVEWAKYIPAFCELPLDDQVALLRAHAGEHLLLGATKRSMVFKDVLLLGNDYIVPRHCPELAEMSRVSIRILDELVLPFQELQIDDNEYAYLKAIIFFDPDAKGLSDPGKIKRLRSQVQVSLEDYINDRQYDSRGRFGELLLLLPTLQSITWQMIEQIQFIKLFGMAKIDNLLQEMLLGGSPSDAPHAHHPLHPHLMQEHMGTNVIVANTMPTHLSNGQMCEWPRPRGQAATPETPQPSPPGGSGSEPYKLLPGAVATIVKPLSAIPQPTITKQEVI
EXPERIMENT: protein-binding microarray; COS-7 nuclear extract on double-stranded Agilent 4x180k PBM; binding buffer, salt, pH and temperature not given in the material; high values mean tight binding
CONDITION: chain copies: 2; label: 3' end of strand 1 on the slide; dsDNA, one strand shown
The full ranking holds about 18,000 sequences; the median of “log2 normalized intensity” is about 0.36, and the highest 2% start at about 7.3. The sample holds the highest values, similar sequences and a random draw of the others, so the mix is not that of the screen.
Recorded binding signal for the following sequences
VALUE_TYPE: binding signal (log2 normalized intensity)

SEQ_TEXT: GAGTCCAAACTGGGACCTGTGACACTCTGCGCCTAGGGAGATTAGAGTATCGGTCGA
VALUE_TYPE: binding signal
VALUE_MEASURED: 0.644
//
SEQ_TEXT: AGTGGTTTCAAGGTGACCCCACGGAGCTGCGCCTAGGGAGATTAGAGTATCGGTCGA
VALUE_TYPE: binding signal
VALUE_MEASURED: 3
//
SEQ_TEXT: CATTGACTTTGCCTTTTGGCTAAAGTCCAAGCCTAGGGAGATTAGAGTATCGGTCGA
VALUE_TYPE: binding signal
VALUE_MEASURED: 4.75
//
SEQ_TEXT: GTTAGAACAAAGTCCAAATTCCTAACTATGGCCTAGGGAGATTAGAGTATCGGTCGA
VALUE_TYPE: binding signal
VALUE_MEASURED: 4.38
//
SEQ_TEXT: CCATTTTGGACTTTGACCTCCAAAATTATAGCCTAGGGAGATTAGAGTATCGGTCGA
VALUE_TYPE: binding signal
VALUE_MEASURED: 10.9
//
SEQ_TEXT: ATGTACATGGACTTTGAACCAAGATATGCTGCCTAGGGAGATTAGAGTATCGGTCGA
VALUE_TYPE: binding signal
VALUE_MEASURED: 7.68
//
SEQ_TEXT: AGAGGAAGATCTTTTTGATGACTTTGTAGGGCCTAGGGAGATTAGAGTATCGGTCGA
VALUE_TYPE: binding signal
VALUE_MEASURED: 0.915
//
SEQ_TEXT: GAGACCCATTTTGGACTTTGACCTCCAAAAGCCTAGGGAGATTAGAGTATCGGTCGA
VALUE_TYPE: binding signal
VALUE_MEASURED: 11.3
//
SEQ_TEXT: AAGGGCTGAGGTTAAAGTCCACATTCTTTAGCCTAGGGAGATTAGAGTATCGGTCGA
VALUE_TYPE: binding signal
VALUE_MEASURED: 6.82
//
SEQ_TEXT: TTTGCCATTTGGAGAGAGTTTGGCCCCAGTGCCTAGGGAGATTAGAGTATCGGTCGA
VALUE_TYPE: binding signal
VALUE_MEASURED: 2.83
//
SEQ_TEXT: AATGATGATGACTTTTGACCCCAGGGGAAAGCCTAGGGAGATTAGAGTATCGGTCGA
VALUE_TYPE: binding signal
VALUE_MEASURED: 6.38
//
SEQ_TEXT: TTGGACTTTGACCTCCAAAATTATAAGTCAGCCTAGGGAGATTAGAGTATCGGTCGA
VALUE_TYPE: binding signal
VALUE_MEASURED: 8.58
//
SEQ_TEXT: CTGCCCAGACCTTATCTTGCATTTCTTCAGGCCTAGGGAGATTAGAGTATCGGTCGA
VALUE_TYPE: binding signal
VALUE_MEASURED: 0.246
//
SEQ_TEXT: GCCACCCTCTGGCCACCAGTTATTCATGTCGCCTAGGGAGATTAGAGTATCGGTCGA
VALUE_TYPE: binding signal
VALUE_MEASURED: 0.887
//
SEQ_TEXT: GAGAGGCTTATGCATGGGAGATCTTCAGTAGCCTAGGGAGATTAGAGTATCGGTCGA
VALUE_TYPE: binding signal
VALUE_MEASURED: -0.357
//
SEQ_TEXT: ACATCTTGATTTAGCCCAGTGAGACCCATTGCCTAGGGAGATTAGAGTATCGGTCGA
VALUE_TYPE: binding signal
VALUE_MEASURED: 0.922
//
SEQ_TEXT: GAATGCAACCACACCAACATGGACTTTGTCGCCTAGGGAGATTAGAGTATCGGTCGA
VALUE_TYPE: binding signal
VALUE_MEASURED: 6.59
//
SEQ_TEXT: CTTTGTAGCACTTTGGACCTCCACTTTGGAGCCTAGGGAGATTAGAGTATCGGTCGA
VALUE_TYPE: binding signal
VALUE_MEASURED: 3.36
//
SEQ_TEXT: TCACAAAGGGCTGAGGTTAAAGTCCACATTGCCTAGGGAGATTAGAGTATCGGTCGA
VALUE_TYPE: binding signal
VALUE_MEASURED: 8.03
//
SEQ_TEXT: CCAGTGAGACCCATTTTGGACTTTGACCTCGCCTAGGGAGATTAGAGTATCGGTCGA
VALUE_TYPE: binding signal
VALUE_MEASURED: 11.8
//
SEQ_TEXT: TCAGAGCTTGAAAAGTCTTTCTGCCAAAGTGCCTAGGGAGATTAGAGTATCGGTCGA
VALUE_TYPE: binding signal
VALUE_MEASURED: 0.513
//
SEQ_TEXT: CTCACCAGTGGGCCCAGAGCACAACCTTTGGCCTAGGGAGATTAGAGTATCGGTCGA
VALUE_TYPE: binding signal
VALUE_MEASURED: 1.42
//
SEQ_TEXT: AAGCTTCACAAAGGGCTGAGGTTAAAGTCCGCCTAGGGAGATTAGAGTATCGGTCGA
VALUE_TYPE: binding signal
VALUE_MEASURED: 7.44
//
SEQ_TEXT: AGTCAATCCCGTGGACTTTGCCTGCCCATCGCCTAGGGAGATTAGAGTATCGGTCGA
VALUE_TYPE: binding signal
VALUE_MEASURED: 5.08
//
SEQ_TEXT: GATAGATATGTTGAAGTGACTAAATGAGAAGCCTAGGGAGATTAGAGTATCGGTCGA
VALUE_TYPE: binding signal
VALUE_MEASURED: -0.611
//
SEQ_TEXT: ATCAAAGGCTTCTAGAAGAGGTTAAAGACCGCCTAGGGAGATTAGAGTATCGGTCGA
VALUE_TYPE: binding signal
VALUE_MEASURED: 1.58
//
SEQ_TEXT: GAATTCTTGACTTTGGACTTTCAAAAGTTAGCCTAGGGAGATTAGAGTATCGGTCGA
VALUE_TYPE: binding signal
VALUE_MEASURED: 5.14
//
SEQ_TEXT: GGAACCAAGAGCAGATTTGTTTGCTCTTTAGCCTAGGGAGATTAGAGTATCGGTCGA
VALUE_TYPE: binding signal
VALUE_MEASURED: 0.915
//
SEQ_TEXT: CCCATCCCAGAGGTCAAACTATCTGAGGTGGCCTAGGGAGATTAGAGTATCGGTCGA
VALUE_TYPE: binding signal
VALUE_MEASURED: 1.93
//
SEQ_TEXT: CTTGACTTTGGACTTTCAAAAGTTAAGGTCGCCTAGGGAGATTAGAGTATCGGTCGA
VALUE_TYPE: binding signal
VALUE_MEASURED: 3.98
//
SEQ_TEXT: CACAGCTGGACTTTGGCTGCAAAATTTGAAGCCTAGGGAGATTAGAGTATCGGTCGA
VALUE_TYPE: binding signal
VALUE_MEASURED: 3.88
//
SEQ_TEXT: GCTAAAAGTTGAATTCTTGACTTTGGACTTGCCTAGGGAGATTAGAGTATCGGTCGA
VALUE_TYPE: binding signal
VALUE_MEASURED: 6.55
//
SEQ_TEXT: AACACCAGCAACCGCCTACCTTTGGACTTCGCCTAGGGAGATTAGAGTATCGGTCGA
VALUE_TYPE: binding signal
VALUE_MEASURED: 6.25
